B1: COUP transcription factor 1, residues 83 to 159; numbered along this chain, P10589 (parent)
chain: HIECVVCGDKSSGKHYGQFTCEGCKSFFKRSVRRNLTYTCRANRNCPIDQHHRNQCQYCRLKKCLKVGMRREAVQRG

Variants of: B1
Experiment: abundance fitness (aPCA) (normalised: wild type 0, dead -1); higher = more abundant; growth selection in yeast, the domain comes from the species named
Details: Homo sapiens
Classify as follows. Reported abundance fitness greater than or equal to -0.07: condition met. Reported abundance fitness below: condition not met.

Check out these entries, answers already filled in.
1) HIECVVCGDKSSGKHYGQFTCEGCKSFFKRSVRRNLTYTCRANRNCPIDQHHRNQCQYCCLKKCLKVGMRREAVQRG; condition met
2) HIECVVCGDKSSGKHYGQFTCEGCKSFFKRSVRTNLTYTCRANRNCPIDQHHRNQCQYCRLKKCLKVGMRREAVQRG; condition not met

Does the reported abundance fitness for `HIECVVCGDKSSGKHYGQFTCEGCKSFFKRSVRRNLTYTCYANRNCPIDQHHRNQCQYCRLKKCLKVGMRREAVQRG` fall at or above the -0.07 mark?
condition met

Similarly, `HIECVVCGDKSSGKHYGQFNCEGCKSFFKRSVRRNLTYTCRANRNCPIDQHHRNQCQYCRLKKCLKVGMRREAVQRG` ?
condition not met

This collection of values is drawn from the Human Domainome abundance scans (Beltran et al. 2025).
